Numbers sourced from PubChem BioAssay.

Documented response across a set of compounds
- EXPERIMENTAL SYSTEM: Beta-2 adrenergic receptor (Homo sapiens) (UniProt P07550)
- Sequence (P07550 whole entry, looked up): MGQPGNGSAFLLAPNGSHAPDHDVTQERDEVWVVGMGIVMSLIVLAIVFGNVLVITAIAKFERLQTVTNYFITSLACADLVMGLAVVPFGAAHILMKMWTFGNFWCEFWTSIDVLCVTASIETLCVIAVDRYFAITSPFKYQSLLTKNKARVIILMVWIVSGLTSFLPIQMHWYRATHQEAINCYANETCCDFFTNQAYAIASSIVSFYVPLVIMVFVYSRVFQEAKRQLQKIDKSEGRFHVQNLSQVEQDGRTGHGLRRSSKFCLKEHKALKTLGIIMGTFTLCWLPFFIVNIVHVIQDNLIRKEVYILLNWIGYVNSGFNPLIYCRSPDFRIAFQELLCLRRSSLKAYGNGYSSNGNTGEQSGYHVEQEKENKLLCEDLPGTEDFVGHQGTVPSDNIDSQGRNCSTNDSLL
- ASSAY REMARKS: agonist-induced loss of surface beta2AR – cell-based, FAP fluorogen, flow cytometry, validation set, pilot screen (AID 504459);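 also: agonist-driven loss of surface beta2AR via internalization measured by FAP dye flow cytometry; reference of the scale not given here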
- CONDITION: Am2.2-beta2AR cells, at 10 µM, hits give high values
RECORDED ENDPOINT: response (%)

>  <COMPOUND>
CCN(CCCc1ccccc1)CCCc1ccccc1

>  <READOUT UNIT>
%

>  <RECORDED MEASUREMENT>
-9.83

$$$$
>  <COMPOUND>
Cc1[nH]c2ccccc2c1C(=O)C(=O)NCc1ccco1

>  <READOUT UNIT>
%

>  <RECORDED MEASUREMENT>
-22.4

$$$$
>  <COMPOUND>
O=C1CC[C@@H](CN(Cc2ccccc2)Cc2cn[nH]c2-c2cc3ccccc3o2)N1

>  <READOUT UNIT>
%

>  <RECORDED MEASUREMENT>
40.3

$$$$
>  <COMPOUND>
CCNC1=C(Cl)C(=O)c2ccccc2C1=O

>  <READOUT UNIT>
%

>  <RECORDED MEASUREMENT>
-20

$$$$
>  <COMPOUND>
CCOc1ccc(N2C(=O)CNC2=S)cc1

>  <READOUT UNIT>
%

>  <RECORDED MEASUREMENT>
-17.9

$$$$
>  <COMPOUND>
COc1ccc(C(=O)COc2ccc(F)cc2)c(O)c1

>  <READOUT UNIT>
%

>  <RECORDED MEASUREMENT>
-9.67

$$$$
>  <COMPOUND>
O=C(O)COc1ccc2occ(C(=O)c3ccccc3)c2c1

>  <READOUT UNIT>
%

>  <RECORDED MEASUREMENT>
-5

$$$$
>  <COMPOUND>
O=C(/C=C/c1ccccc1)NC(=O)c1ccccc1O

>  <READOUT UNIT>
%

>  <RECORDED MEASUREMENT>
5.9

$$$$
>  <COMPOUND>
COc1ccc(CCN(C)Cc2nc(Cc3ccc(OC)c(OC)c3)no2)cc1OC

>  <READOUT UNIT>
%

>  <RECORDED MEASUREMENT>
-13.9

$$$$
>  <COMPOUND>
CC(C)=CCCC1=CCC2C(=O)NNC(=O)C2C1 (stereo not given)

>  <READOUT UNIT>
%

>  <RECORDED MEASUREMENT>
-19.2

$$$$
>  <COMPOUND>
CCc1cc2c(C)cc(=O)oc2cc1OC(=O)C1CCCN1C(=O)OC(C)(C)C (stereo not given)

>  <READOUT UNIT>
%

>  <RECORDED MEASUREMENT>
19.6

$$$$
>  <COMPOUND>
COc1ccc(-n2cc(CNCc3cccnc3)c(-c3cccc(F)c3)n2)cc1

>  <READOUT UNIT>
%

>  <RECORDED MEASUREMENT>
-13.2

$$$$
>  <COMPOUND>
CCOC(=O)C1=C2c3ccc4ccccc4c3CC(C)(C)N2C(=O)C1=O

>  <READOUT UNIT>
%

>  <RECORDED MEASUREMENT>
7.03

$$$$
>  <COMPOUND>
Cc1cc(C)nc(NS(=O)(=O)c2ccc(N)cc2)n1

>  <READOUT UNIT>
%

>  <RECORDED MEASUREMENT>
-4.61

$$$$
>  <COMPOUND>
O=C(O)c1ccc(OCCn2ccnc2)cc1

>  <READOUT UNIT>
%

>  <RECORDED MEASUREMENT>
-0.04

$$$$
>  <COMPOUND>
Cc1ccc2c(c1)C(O)(C1COC(C)(C)CC1=O)C(=O)N2C (stereo not given)

>  <READOUT UNIT>
%

>  <RECORDED MEASUREMENT>
-0.64

$$$$
>  <COMPOUND>
O=C(NCCc1c[nH]c2ccccc12)OCCSS(=O)(=O)O

>  <READOUT UNIT>
%

>  <RECORDED MEASUREMENT>
-2.85

$$$$
>  <COMPOUND>
COc1cc2c(cc1OC)CN(Cc1ccc(C)s1)CC2

>  <READOUT UNIT>
%

>  <RECORDED MEASUREMENT>
-7.1

$$$$
>  <COMPOUND>
COC(=O)C1=C(C)N(C)C(=S)NC1c1ccc(Cl)cc1 (stereo not given)

>  <READOUT UNIT>
%

>  <RECORDED MEASUREMENT>
-27.7

$$$$
>  <COMPOUND>
O=C(O)CCCCCN=C1CCc2ccccc2N1

>  <READOUT UNIT>
%

>  <RECORDED MEASUREMENT>
-6.38

$$$$
>  <COMPOUND>
C/C(=N\NC(=O)c1ccccc1[N+](=O)[O-])c1ccc(Br)s1

>  <READOUT UNIT>
%

>  <RECORDED MEASUREMENT>
-0.6

$$$$
>  <COMPOUND>
O=C(Cc1cccc2ccccc12)N1CC[C@@]2(O)CCCC[C@H]2C1

>  <READOUT UNIT>
%

>  <RECORDED MEASUREMENT>
0.11

$$$$
>  <COMPOUND>
O=C(NO)c1ccccc1O

>  <READOUT UNIT>
%

>  <RECORDED MEASUREMENT>
-0.56

$$$$
>  <COMPOUND>
CCC(=O)c1ccc(OCc2ccc(C(=O)OC)cc2)cc1

>  <READOUT UNIT>
%

>  <RECORDED MEASUREMENT>
4.9

$$$$
>  <COMPOUND>
NNC(=O)c1ccncc1

>  <READOUT UNIT>
%

>  <RECORDED MEASUREMENT>
-10.5

$$$$

----------
- ASSAY REMARKS: cytosolic pH regulators acting via V-ATPase – S. cerevisiae, pHLuorin, HTS validation (AID 504600);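 also: plate controls were DMSO for no effect and reference compound for full effect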
- CONDITION: V-ATPase proton transport, at 10 µM
The source made the active and inactive calls. Cut-off read from the data, not from the text of the source: active = response above about 15%; inactive = the rest.
Classes used: active, inactive

>  <COMPOUND>
Cc1ccc2c(CC(=O)O)coc2c1

>  <CLASS NAME>
inactive

$$$$
>  <COMPOUND>
COc1ccc(C2CC(c3ccc([N+](=O)[O-])cc3)=NN2C(=O)c2ccccc2)cc1OC (configuration not stated)

>  <CLASS NAME>
inactive

$$$$
>  <COMPOUND>
CC[N+]1(CC)CC2=Cc3ccccc3CC2C1 (configuration not stated)

>  <CLASS NAME>
inactive

$$$$
>  <COMPOUND>
O=C(NCc1ccc(N2CCCC2=O)cc1)c1cccc(Cl)c1

>  <CLASS NAME>
inactive

$$$$
>  <COMPOUND>
Cc1c(O)c(=O)ccn1C

>  <CLASS NAME>
inactive

$$$$
>  <COMPOUND>
Cc1ccc(S(=O)(=O)N[C@@H](C)C(=O)N2CCC(C(=O)N3CCC[C@H]3C(=O)O)CC2)cc1

>  <CLASS NAME>
inactive

$$$$
>  <COMPOUND>
c1ccc2[nH]c(-c3cscn3)nc2c1

>  <CLASS NAME>
inactive

$$$$
>  <COMPOUND>
CC1(C)S[C@@H]2[C@H](NC(=O)Cc3ccccc3)C(=O)N2[C@H]1C(=O)O

>  <CLASS NAME>
inactive

$$$$
>  <COMPOUND>
COc1ccc2[nH]c(=O)c(CNC3CCCCC3)cc2c1

>  <CLASS NAME>
inactive

$$$$
>  <COMPOUND>
O=C(CCc1ccccc1)Nc1ccccc1C(F)(F)F

>  <CLASS NAME>
inactive

$$$$
>  <COMPOUND>
CCCCCC#CCC#CCC#CCC#CCCCC(=O)O

>  <CLASS NAME>
inactive

$$$$
>  <COMPOUND>
O=[N+]([O-])c1ccc(O)c2ncccc12

>  <CLASS NAME>
active

$$$$

----------
- ASSAY REMARKS: cytosolic pH regulators acting via V-ATPase – S. cerevisiae, pHLuorin, HTS validation (AID 504600);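 also: plate controls were DMSO for no effect and reference compound for full effect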
- CONDITION: V-ATPase proton transport, at 10 µM, hits give high values
RECORDED ENDPOINT: response (%)

>  <COMPOUND>
CC1(C)c2ccccc2N2CC(=O)NC21/C=C/c1ccco1 (centres undefined)

>  <RECORDED MEASUREMENT>
-1.22

$$$$
>  <COMPOUND>
CCCCNc1ccc(C(=O)OCCN(C)C)cc1

>  <RECORDED MEASUREMENT>
-3.28

$$$$
>  <COMPOUND>
COc1cc(C2Nc3ccccc3NC3=C2C(=O)CC(c2ccc(OC)c(OC)c2)C3)ccc1O (centres undefined)

>  <RECORDED MEASUREMENT>
1.04

$$$$
>  <COMPOUND>
COc1ccc2c(CC(=O)NCC3CCC(C(=O)O)CC3)cc(=O)oc2c1 (centres undefined)

>  <RECORDED MEASUREMENT>
7.23

$$$$
>  <COMPOUND>
OCC(O)CN1CCN(c2ccccc2)CC1 (centres undefined)

>  <RECORDED MEASUREMENT>
-24.2

$$$$
>  <COMPOUND>
COCc1cc(=O)[nH]c(/N=C(\N)Nc2ccc(Oc3ccccc3)cc2)n1

>  <RECORDED MEASUREMENT>
-1.49

$$$$
>  <COMPOUND>
CC(OC(=O)c1cc(=O)[nH]c2ccccc12)C(=O)c1ccccc1 (centres undefined)

>  <RECORDED MEASUREMENT>
0.61

$$$$
>  <COMPOUND>
O=C(O)C1Cc2ccccc2CN1S(=O)(=O)c1ccccc1 (centres undefined)

>  <RECORDED MEASUREMENT>
1.38

$$$$
>  <COMPOUND>
O=C1[C@@H]2CSCN2C(=O)CN1Cc1ccc(F)cc1

>  <RECORDED MEASUREMENT>
-2.17

$$$$
>  <COMPOUND>
CC(=O)NC1C(OCc2ccccc2)OC(COC(C)=O)C(OC(C)=O)C1OC(C)=O (centres undefined)

>  <RECORDED MEASUREMENT>
-3.81

$$$$
>  <COMPOUND>
CC(=O)c1c[nH]c2ccc(C)cc2c1=O

>  <RECORDED MEASUREMENT>
-1.39

$$$$
>  <COMPOUND>
COc1c2c(nc3occc13)C(CC=C(C)C)(OC)C(O)CC2 (centres undefined)

>  <RECORDED MEASUREMENT>
-1.04

$$$$
>  <COMPOUND>
Cc1cc(=O)oc2cc(OC(C)C(=O)NCC3CCCO3)ccc12 (centres undefined)

>  <RECORDED MEASUREMENT>
0.04

$$$$
>  <COMPOUND>
COc1ccc2c3c([nH]c2c1)C1(NCC3)C(=O)Nc2ccccc21 (centres undefined)

>  <RECORDED MEASUREMENT>
-0.21

$$$$
>  <COMPOUND>
COc1ccc2c(c1O)Cc1ccccc1C2=O

>  <RECORDED MEASUREMENT>
-2.94

$$$$
>  <COMPOUND>
O=c1[nH]c(=O)n(C2CCCO2)cc1F (centres undefined)

>  <RECORDED MEASUREMENT>
6.89

$$$$
>  <COMPOUND>
COc1ccc(CCN(C)CCCC(C#N)(c2cc(OC)c(OC)c(OC)c2)C(C)C)cc1OC (centres undefined)

>  <RECORDED MEASUREMENT>
0.22

$$$$
>  <COMPOUND>
CC1(C)Cc2ccccc2-c2n[nH]c(=S)n21

>  <RECORDED MEASUREMENT>
-1.77

$$$$
>  <COMPOUND>
COc1ccccc1C(CCN(Cc1ccccc1)C(C)=O)c1ccco1 (centres undefined)

>  <RECORDED MEASUREMENT>
0.45

$$$$
>  <COMPOUND>
CC(C)CC(=O)NC(NC(=O)CC(C)C)c1cccc([N+](=O)[O-])c1

>  <RECORDED MEASUREMENT>
3.51

$$$$
>  <COMPOUND>
O=c1c(-c2ccccc2)c(O)c2cccc3c2n1CCC3

>  <RECORDED MEASUREMENT>
0.3

$$$$
>  <COMPOUND>
CC(=O)SC1CC2=CC(=O)CCC2(C)C2CCC3(C)C(CCC34CCC(=O)O4)C12 (centres undefined)

>  <RECORDED MEASUREMENT>
1.6

$$$$
>  <COMPOUND>
COc1ccc(CC(=O)NCC2(c3ccc(OC)c(OC)c3)CCOCC2)cc1

>  <RECORDED MEASUREMENT>
0.74

$$$$
>  <COMPOUND>
Cc1cccc(Nc2ncccc2C(=O)O)c1C

>  <RECORDED MEASUREMENT>
-0.8

$$$$
